biological target: ALK (L1196M) (Homo sapiens, UniProt Q9UM73, L1196M); assay: KINOMEscan dissociation constant
MEASUREMENT TYPE: Kd
Put your answer as a value accompanied by its unit after it.

**Query** Tell me its Kd given Cc1cc(Nc2ncc(Cl)c(Nc3ccccc3S(=O)(=O)C(C)C)n2)c(OC(C)C)cc1C1=CCN(C2CCOCC2)CC1 [APG-2449] as the entry.
**Result** 0.54 nM

====

target: ROS1 (Homo sapiens); construct: purchased Eurofins DiscoverX Products, LLC (LeadHunter Drug Discovery Services Panels / KINOMEscan); experiment: KINOMEscan dissociation constant; type: binding
Sequence (P08922 28-2347): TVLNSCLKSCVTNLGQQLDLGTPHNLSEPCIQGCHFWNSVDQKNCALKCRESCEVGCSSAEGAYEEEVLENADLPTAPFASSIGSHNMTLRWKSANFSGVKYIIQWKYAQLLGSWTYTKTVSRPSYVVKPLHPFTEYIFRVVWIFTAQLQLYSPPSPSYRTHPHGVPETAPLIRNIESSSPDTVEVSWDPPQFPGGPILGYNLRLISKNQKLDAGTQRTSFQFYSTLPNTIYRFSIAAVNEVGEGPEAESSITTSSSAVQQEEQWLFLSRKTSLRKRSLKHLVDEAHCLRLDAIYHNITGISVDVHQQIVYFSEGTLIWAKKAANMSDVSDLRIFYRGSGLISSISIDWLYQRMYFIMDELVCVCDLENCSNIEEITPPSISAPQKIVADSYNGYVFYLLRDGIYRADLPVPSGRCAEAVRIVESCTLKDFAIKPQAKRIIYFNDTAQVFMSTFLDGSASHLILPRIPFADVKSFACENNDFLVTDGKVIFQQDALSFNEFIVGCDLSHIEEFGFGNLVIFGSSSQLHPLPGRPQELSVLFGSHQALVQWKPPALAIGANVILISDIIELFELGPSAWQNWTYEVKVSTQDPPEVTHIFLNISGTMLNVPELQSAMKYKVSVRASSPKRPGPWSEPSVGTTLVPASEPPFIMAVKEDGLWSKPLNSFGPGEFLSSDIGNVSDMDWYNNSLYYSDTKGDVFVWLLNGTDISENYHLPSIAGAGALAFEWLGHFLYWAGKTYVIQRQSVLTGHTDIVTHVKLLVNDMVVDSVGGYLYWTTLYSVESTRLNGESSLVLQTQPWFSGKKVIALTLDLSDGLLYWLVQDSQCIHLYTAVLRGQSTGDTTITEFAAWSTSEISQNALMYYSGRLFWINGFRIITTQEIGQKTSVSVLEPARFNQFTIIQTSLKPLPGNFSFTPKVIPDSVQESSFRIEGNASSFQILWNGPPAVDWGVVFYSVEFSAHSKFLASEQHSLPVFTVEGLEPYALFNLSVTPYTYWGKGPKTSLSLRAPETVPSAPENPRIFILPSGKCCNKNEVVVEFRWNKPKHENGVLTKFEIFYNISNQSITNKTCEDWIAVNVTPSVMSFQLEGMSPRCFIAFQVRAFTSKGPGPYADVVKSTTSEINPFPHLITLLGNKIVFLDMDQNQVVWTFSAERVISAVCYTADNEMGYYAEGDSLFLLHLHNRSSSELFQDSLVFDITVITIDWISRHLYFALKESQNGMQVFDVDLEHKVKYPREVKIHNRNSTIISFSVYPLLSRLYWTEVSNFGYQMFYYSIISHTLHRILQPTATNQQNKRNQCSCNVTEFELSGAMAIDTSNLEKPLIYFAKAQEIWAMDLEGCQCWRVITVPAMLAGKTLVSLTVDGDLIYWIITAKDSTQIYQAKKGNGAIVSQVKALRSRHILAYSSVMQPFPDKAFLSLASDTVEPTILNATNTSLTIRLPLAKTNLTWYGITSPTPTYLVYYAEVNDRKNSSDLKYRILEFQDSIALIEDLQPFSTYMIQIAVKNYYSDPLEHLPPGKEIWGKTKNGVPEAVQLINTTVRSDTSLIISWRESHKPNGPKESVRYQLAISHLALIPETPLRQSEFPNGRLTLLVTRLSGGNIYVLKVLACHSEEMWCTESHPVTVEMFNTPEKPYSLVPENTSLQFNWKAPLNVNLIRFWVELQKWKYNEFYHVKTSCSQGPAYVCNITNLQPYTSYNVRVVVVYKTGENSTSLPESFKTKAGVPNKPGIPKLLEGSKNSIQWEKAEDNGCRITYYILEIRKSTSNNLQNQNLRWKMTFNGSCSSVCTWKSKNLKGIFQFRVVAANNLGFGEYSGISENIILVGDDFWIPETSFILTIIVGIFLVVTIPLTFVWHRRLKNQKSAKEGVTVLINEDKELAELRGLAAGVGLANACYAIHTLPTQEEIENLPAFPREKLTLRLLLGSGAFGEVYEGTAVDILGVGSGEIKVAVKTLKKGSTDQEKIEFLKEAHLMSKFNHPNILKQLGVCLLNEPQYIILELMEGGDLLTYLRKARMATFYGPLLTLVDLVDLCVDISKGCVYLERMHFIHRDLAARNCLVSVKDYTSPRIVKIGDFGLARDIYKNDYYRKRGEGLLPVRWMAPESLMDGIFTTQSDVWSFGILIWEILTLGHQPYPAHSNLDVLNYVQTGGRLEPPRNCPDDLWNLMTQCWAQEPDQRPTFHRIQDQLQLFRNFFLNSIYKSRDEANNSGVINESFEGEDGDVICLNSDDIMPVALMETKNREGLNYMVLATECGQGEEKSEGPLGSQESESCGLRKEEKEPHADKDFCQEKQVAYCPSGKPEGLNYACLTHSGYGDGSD
MEASUREMENT TYPE: Kd
Show the value, then the unit it is measured in.

**Query** Name the recorded Kd of the item Cc1cc(Nc2ncc(Cl)c(Nc3ccccc3S(=O)(=O)C(C)C)n2)c(OC(C)C)cc1C1=CCN(C2CCOCC2)CC1 in your answer.
**Result** 810 pM

====

target: ALK (Homo sapiens, UniProt Q9UM73)
Sequence (Q9UM73 19-1620): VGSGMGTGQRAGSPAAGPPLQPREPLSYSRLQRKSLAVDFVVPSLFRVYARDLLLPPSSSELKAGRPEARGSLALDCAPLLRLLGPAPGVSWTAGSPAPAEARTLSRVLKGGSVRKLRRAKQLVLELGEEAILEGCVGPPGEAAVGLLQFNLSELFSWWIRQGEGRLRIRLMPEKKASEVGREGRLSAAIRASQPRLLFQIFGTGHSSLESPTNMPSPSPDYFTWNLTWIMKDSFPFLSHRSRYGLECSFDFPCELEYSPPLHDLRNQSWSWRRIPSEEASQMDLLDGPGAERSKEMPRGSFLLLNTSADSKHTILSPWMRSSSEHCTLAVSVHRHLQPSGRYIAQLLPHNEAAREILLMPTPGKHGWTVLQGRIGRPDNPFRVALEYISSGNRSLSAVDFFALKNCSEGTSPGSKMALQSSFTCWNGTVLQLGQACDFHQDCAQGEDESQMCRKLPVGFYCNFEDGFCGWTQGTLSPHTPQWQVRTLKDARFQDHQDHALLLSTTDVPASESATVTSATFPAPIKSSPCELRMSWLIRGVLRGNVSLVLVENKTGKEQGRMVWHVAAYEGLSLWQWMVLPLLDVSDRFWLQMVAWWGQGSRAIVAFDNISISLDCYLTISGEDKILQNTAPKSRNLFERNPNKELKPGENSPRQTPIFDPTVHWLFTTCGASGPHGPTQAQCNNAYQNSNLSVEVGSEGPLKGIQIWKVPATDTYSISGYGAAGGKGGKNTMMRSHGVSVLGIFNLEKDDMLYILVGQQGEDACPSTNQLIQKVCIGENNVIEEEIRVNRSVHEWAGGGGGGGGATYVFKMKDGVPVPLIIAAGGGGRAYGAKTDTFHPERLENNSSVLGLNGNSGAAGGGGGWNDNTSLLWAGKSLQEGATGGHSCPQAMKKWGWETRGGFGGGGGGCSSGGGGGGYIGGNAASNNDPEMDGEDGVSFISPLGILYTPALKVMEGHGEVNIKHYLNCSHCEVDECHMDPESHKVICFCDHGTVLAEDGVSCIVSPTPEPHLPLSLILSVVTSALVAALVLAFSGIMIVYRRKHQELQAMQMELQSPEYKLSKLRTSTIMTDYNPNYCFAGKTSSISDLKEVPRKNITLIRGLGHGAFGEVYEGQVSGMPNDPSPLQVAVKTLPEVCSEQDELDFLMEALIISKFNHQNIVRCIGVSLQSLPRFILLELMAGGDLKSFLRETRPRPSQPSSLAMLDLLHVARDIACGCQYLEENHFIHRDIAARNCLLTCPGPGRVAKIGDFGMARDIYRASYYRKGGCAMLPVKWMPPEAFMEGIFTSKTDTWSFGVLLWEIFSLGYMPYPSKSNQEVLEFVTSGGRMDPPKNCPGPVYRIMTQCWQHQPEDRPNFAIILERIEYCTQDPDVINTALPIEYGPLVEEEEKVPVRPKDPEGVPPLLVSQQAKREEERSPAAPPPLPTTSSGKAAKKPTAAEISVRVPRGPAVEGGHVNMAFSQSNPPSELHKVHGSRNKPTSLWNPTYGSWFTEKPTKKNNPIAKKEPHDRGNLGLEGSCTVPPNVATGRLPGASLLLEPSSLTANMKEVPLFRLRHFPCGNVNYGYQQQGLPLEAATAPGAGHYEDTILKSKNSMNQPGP
MEASUREMENT TYPE: pKd
API: returns pKd as number; meaning -log10 of concentration in mol/L.

**Query** Note pKd for the compound shown: Cc1cc(Nc2ncc(Cl)c(Nc3ccccc3S(=O)(=O)C(C)C)n2)c(OC(C)C)cc1C1=CCN(C2CCOCC2)CC1
**Result** 8.80

====

System: NCI-H1975
Experiment: WST-8 cell proliferation assay
Assay type: cell-based
Settings: Homo sapiens, cells without ALK or ROS1 rearrangements, FAK protein detectable, read-out: IC50 (antiproliferative activity)
Protocol: Cell viability was determined using the water-soluble tetrazolium salt (WST-8) assay (Cell counting Kit-8, Shanghai Life iLab). Cell viability was calculated as follows, where “RLU” signifies relative light units: Cellviability=meanRLUsample-meanRLUblank/RLUcellcontrol-RLUblank×100 Half-maximal inhibitory concentration (IC50) values were calculated using Prism (GraphPad, San Diego, CA).
MEASUREMENT TYPE: pIC50
pIC50 field: float, defined as -log10 of concentration (mol/L).

**Query** Provide pIC50 value for the following compound: Cc1cc(Nc2ncc(Cl)c(Nc3ccccc3S(=O)(=O)C(C)C)n2)c(OC(C)C)cc1C1=CCN(C2CCOCC2)CC1
**Result** 5.45
